Source of measurements: ChEMBL document CHEMBL5385889

# Assay remarks: Selectivity index, ratio of CC50 for cytotoxicity against mouse J774.1 cells assessed as reduction in cell viability to IC50 for antitrypanosomal activity against wild type Trypanosoma brucei M1.2 Lister 427 trypomastigotes form assessed as parasite growth inhibition
# Format: toxicity, cell-based
# Test settings: read-out: Ratio CC50/IC50

{"Input smiles": "CCCCn1cc(C(=O)NC2(c3ccccc3)CCCCC2)c(=O)c2ccc(N3CCOCC3)cc21", "selectivity ratio": 9}
{"Input smiles": "CCCCn1cc(C(=O)NCc2ccccc2)c(=O)c2cc(F)c(N3CCOCC3)c(Br)c21", "selectivity ratio": "> 106"}
{"Input smiles": "O=C(NCc1ccccc1)c1cn(CC2CC2)c2cc(N3CCOCC3)ccc2c1=O", "selectivity ratio": "> 91"}
{"Input smiles": "CCCCn1cc(C(=O)NCc2ccccc2)c(=O)c2cc(F)c(N3CCOCC3)cc21", "selectivity ratio": 1210}
{"Input smiles": "CCCCn1cc(C(=O)NCc2ccc(CN)cc2)c(=O)c2ccc(N3CCOCC3)cc21", "selectivity ratio": "> 32"}
{"Input smiles": "CCCCn1cc(C(=O)NCc2ccc(CN)cc2)c(=O)c2c(F)cc(N3CCOCC3)cc21", "selectivity ratio": "> 200"}
{"Input smiles": "CCCCn1cc(C(=O)NCc2cccc(C#N)c2)c(=O)c2c(F)cc(N3CCOCC3)cc21", "selectivity ratio": "> 2270"}
{"Input smiles": "CCCCn1cc(C(=O)NCc2ccccc2)c(=O)c2ccc(N3CCOCC3)cc21", "selectivity ratio": "> 435"}
{"Input smiles": "CCCCn1cc(C(=O)NCc2ccccc2)c(=O)c2ccc(N3CCC(OCCOCCOCCOC)CC3)cc21", "selectivity ratio": 48}
{"Input smiles": "CCCCn1cc(C(=O)NC23CC(C2)C3)c(=O)c2ccc(N3CCOCC3)cc21", "selectivity ratio": "> 13"}
{"Input smiles": "CCCCn1cc(C(=O)NCc2ccc(CN)cc2)c(=O)c2cc(F)c(N3CCOCC3)cc21", "selectivity ratio": 164}
{"Input smiles": "CCCCn1cc(C(=O)NC2(c3ccccc3)CC2)c(=O)c2ccc(N3CCOCC3)cc21", "selectivity ratio": "> 69"}
{"Input smiles": "CCCCn1cc(C(=O)NCc2cccc(CN)c2)c(=O)c2cc(F)c(N3CCOCC3)cc21", "selectivity ratio": 80}

---

# Assay remarks: Selectivity index, ratio of CC50 for cytotoxicity against mouse J774.1 cells assessed as reduction in cell viability to IC50 for antitrypanosomal activity against wild type Trypanosoma brucei M1.2 Lister 427 trypomastigotes form assessed as parasite growth inhibition
# Format: toxicity, cell-based
# Test settings: read-out: Ratio CC50/IC50
The compounds listed here are annotated with their selectivity ratio.
Reported property: selectivity ratio

{"Compound": "CCCCn1cc(C(=O)NC2(c3ccccc3)CC2)c(=O)c2cc(F)c(N3CCOCC3)cc21", "Result": "> 333"}
{"Compound": "CCCCn1cc(C(=O)NCc2ccccc2)c(=O)c2cc(F)c(N3CCOCC3)c(Cl)c21", "Result": "> 278"}
{"Compound": "CCCCn1cc(C(=O)NC2(c3ccccc3)CCCCC2)c(=O)c2c(F)cc(N3CCOCC3)cc21", "Result": "> 12"}
{"Compound": "O=C(NCc1ccccc1)c1cn(C23CC(C2)C3)c2cc(N3CCOCC3)ccc2c1=O", "Result": 373}
{"Compound": "CCCCN1CC(C)(C(=O)NCc2ccccc2)C(=O)c2ccc(N3CCOCC3)cc21 (centres undefined)", "Result": "> 13"}
{"Compound": "O=C(NCc1ccccc1)c1cn(CC2CCC2)c2cc(N3CCOCC3)ccc2c1=O", "Result": 37}
{"Compound": "O=C(NCc1ccccc1)c1cn(CC2CCCCC2)c2cc(N3CCOCC3)ccc2c1=O", "Result": "> 58"}
{"Compound": "CCCCn1cc(C(=O)NCc2ccccc2)c(=O)c2c(F)cc(N3CCOCC3)cc21", "Result": "> 2000"}
{"Compound": "CCCCn1cc(C(=O)NCc2ccccc2)c(=O)c2ccc(N3CCCN(C)CC3)cc21", "Result": 5}
{"Compound": "CCCCn1cc(C(=O)NCc2ccccc2)c(=O)c2ccc(OCCOCCOCCOC)cc21", "Result": "> 45"}
{"Compound": "CCCCn1cc(C(=O)NCc2cccc(CN)c2)c(=O)c2ccc(N3CCOCC3)cc21", "Result": "> 46"}
{"Compound": "CCCCn1cc(C(=O)NCc2ccccc2)c(=O)c2ccc(NCCOCCOCCOC)cc21", "Result": "> 43"}
{"Compound": "CCCCn1cc(C(=O)NCc2ccccc2)c(=O)c2cc(OCC)c(N3CCOCC3)c(OCC)c21", "Result": 17}
{"Compound": "CCCCn1cc(C(=O)NC2(c3ccccc3)CC2)c(=O)c2c(F)cc(N3CCOCC3)cc21", "Result": "> 278"}
{"Compound": "CCCCn1cc(C(=O)NC2(c3ccccc3)CCCCC2)c(=O)c2cc(F)c(N3CCOCC3)cc21", "Result": 7}
{"Compound": "CCCCn1cc(C(=O)NC2(c3ccccc3)CC2)c(=O)c2cc(F)c(N3CCOCC3)c(F)c21", "Result": "> 333"}
{"Compound": "CCCCn1cc(C(=O)NC2(c3ccccc3)CCCC2)c(=O)c2ccc(N3CCOCC3)cc21", "Result": 8}
{"Compound": "CCCCn1cc(C(=O)NC2(c3ccccc3)CCCC2)c(=O)c2cc(F)c(N3CCOCC3)cc21", "Result": 26}
{"Compound": "CCCCn1cc(C(=O)NCc2ccc(C#N)cc2)c(=O)c2c(F)cc(N3CCOCC3)cc21", "Result": "> 500"}
